# Tested on: HCT116 WT cells
# assay-notes: HCT116 proliferation assay, WT cells (CellTiter-Glo, 6 days)
# Assay type: cell-based
# assay-conditions: Homo sapiens, HCT-116, 144 h, read-out: Prolif_HCT116-WT IC50
pIC50: −log10 of the molar value.
measured-metric: pIC50

>>> df
                                   compound  measured_metric  readout_number
0  Cc1cc2cc(C(=O)N(Cc3ccc(C#N)cn3)[C@@H](c3ncccn3)C3CC3)c(F)cc2nc1N [Example 421]            pIC50            5.95
1  Cc1cc2cc(C(=O)N(Cc3cc(Cl)c(C#N)cn3)[C@H](C)c3ncccn3)ccc2nc1N [Example 807]            pIC50            6.12
2  Cc1cc2cc(C(=O)N(Cc3ccc(C(F)(F)F)cn3)C3CCCC3C#N)c(F)cc2nc1N (centres unmarked) [Example 702]            pIC50            6.25
3  Cc1cc2cc(C(=O)N(Cc3ccc(C(F)(F)F)nn3)[C@@H](c3ncccn3)C3CC3)ccc2nc1N (single isomer, unassigned) [Example 518]            pIC50            6.07
4  CO[C@@H](CN(Cc1ccc(C(F)(F)F)cn1)C(=O)c1cnc2nc(N)c(Br)cc2c1)C(F)(F)F (single isomer, unassigned) [Example 454]            pIC50            5.40

I: Cc1cc2cc(C(=O)N(Cc3ccc(C(F)(F)F)cn3)[C@@H]3COCc4ncccc43)ccc2nc1N (single isomer, unassigned) [Example 814]
II: C[C@H](c1ncccc1F)N(Cc1ccc(C(F)(F)F)cn1)C(=O)c1cnc2nc(N)c(Br)cc2c1 [Example 388]
[Q] Lowest pIC50? choose I or II Output the label that corresponds to your choice.
[A] II
(II: 5.31, I: 5.75)

The reported numbers originate from patent US20230159510A1.
